Cited source: patent US8278344B2

assay: Microsome stability in pooled mouse liver microsomes; assay type: in vitro ADME; details: 3 μM compound, 0.5 mg/mL microsome protein, 1 mM NADPH
Endpoint: half-life at 3 μM (min)

Cn1c(Cl)ccc1C(=O)NCc1c(F)cccc1Cl = 15.4

A: Cn1cccc1C(=O)NCc1c(F)cccc1Cl
B: C[C@H](NC(=O)c1ccc(C#N)n1C)c1c(F)cccc1Cl
C: Cn1c(C#N)ccc1C(=O)NCc1c(F)cccc1Cl
Sort low-to-high on half-life at 3 μM, please. # format: label list in the order the request specifies
A, C, B
